measurement description: TOX21_p53_BLA_p4_viability: Viability Assessment in the Tox21 HCT-116 p53 Agonism Beta-lactamase Assay, Phase 4 (AID 2283597);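 note: hits lower the luminescence signal meaning cytotoxicity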
Inconclusive results are not listed. Active and inactive are the calls of the source. Rule for the calls: active = hit-call score of the fitted dose curve at least 0.9, where 1 is the maximum; inconclusive = response in the unintended direction; inactive = score below 0.9.
// classify into TRUE for active, FALSE for inactive

Worked cases, answers included:
> print(dat)
                                   compound  assigned.label
1                    Cc1ccc(C(C)(C)C)c(O)c1            TRUE
2  COc1ccc(OC(F)(F)F)cc1CN[C@H]1CCCN[C@H]1c1ccccc1            TRUE
3               Cc1cc(Cc2ccc(N)c(C)c2)ccc1N           FALSE

Prompt: Could you kindly confirm the outcome this assay logged for CCC(C)N(C)C(=O)c1cc2ccccc2c(-c2ccccc2Cl)n1 (stereo not given) ?
Completion: FALSE

Prompt: And what about the compound Nc1nc(Cl)nc2c1ncn2[C@H]1C[C@H](O)[C@@H](CO)O1 ?
Completion: FALSE

* * *

Read-out: Broad substrate specificity ATP-binding cassette transporter ABCG2 (Homo sapiens)
measurement description: LTEA_HepaRG_ABCG2: Life Technologies and Expression Analysis (LTEA) Assay for ABC Transporter (ABCG2) using HepaRG (AID 2283465)
conditions: mRNA level, 48 h; actives raise or lower the signal
Activity calls are given as the source filed them. The calls were made as follows: active = hit-call score of the fitted dose curve at least 0.9, where 1 is the maximum; inactive = score below 0.9.
Hi! Could you answer with just one of these? active, inactive

Examples from the recorded data:
> print(dat)
                                   molecule  assigned.label
1  O=C(N[C@@H](c1ccccc1)[C@@H]1CCCCN1)c1cccc(C(F)(F)F)c1Cl        inactive
2                                   CC(=O)O        inactive
3  Cc1cn([C@H]2C=C[C@@H](CO)O2)c(=O)[nH]c1=O        inactive
4                    Cc1ccc(C(C)(C)C)c(O)c1        inactive
5                            O=Cc1ccccc1C=O        inactive

Prompt: Hey, what did the test say about O=C(NS(=O)(=O)/C=C/c1cccs1)c1ccc(F)cc1Br ?
Completion: active

Prompt: Now consider CCCCCCC(C=O)=Cc1ccccc1 .
Completion: inactive

Prompt: Moving on to O=C1NC(=O)C(c2ccccc2)(c2ccccc2)N1
Completion: inactive

Prompt: Another molecule to look at: CC(=O)OC1CC(C)OC(C)O1 (stereo not drawn)
Completion: inactive

Prompt: Same question, NCCOCCOCCN this time
Completion: active

Prompt: Item: O=C(O)CC(O)(CC(=O)O)C(=O)O
Completion: inactive

Prompt: Similarly, CCN(CC)CCOc1ccc(C(=C(Cl)c2ccccc2)c2ccccc2)cc1 ?
Completion: inactive

* * *

measurement description: ACEA_AR_antagonist_AUC_viability: ACEA Biosciences xCELLigence Real-Time Cell Analysis on Androgen Receptor Antagonism for Viability (AID 2283776);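 note: 22Rv1 human prostate cancer cells growing on impedance electrode plates; area under impedance growth curve at 80 h after dosing as viability; hits lower the growth signal relative to DMSO meaning cytotoxicity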
Records with an inconclusive call do not appear. Active and inactive are the calls of the source. The calls were made as follows: active = hit-call score of the fitted dose curve at least 0.9, where 1 is the maximum; inconclusive = response in the unintended direction; inactive = score below 0.9.
Just give me one of these, please: active, inactive

> print(dat)
                                    compound  assigned.label
 1                  O=C(O)CN(CC(=O)O)CC(=O)O        inactive
 2  O=C(NS(=O)(=O)/C=C/c1cccs1)c1ccc(F)cc1Br          active
 3                          C/C=C/C=C/C(=O)O        inactive
 4  Cc1cc(SC2=C(O)C[C@@](CCc3ccc(N)cc3)(C(C)C)OC2=O)c(C(C)(C)C)cc1CO          active
 5  O=C1OC(c2ccc(O)cc2)(c2ccc(O)cc2)c2ccccc21          active
 6  Cc1ccc(-c2cc(C(F)(F)F)nn2-c2ccc(S(N)(=O)=O)cc2)cc1          active
 7                              Oc1ccc(O)cc1          active
 8                O=C(O)CC(O)(CC(=O)O)C(=O)O        inactive
 9                                O=C1CCCCC1        inactive
10              CC(C)COC(=O)CCCCC(=O)OCC(C)C        inactive

Prompt: Tell me the recorded outcome of this test for NCCOCCOCCN .
Completion: inactive

Prompt: Same question for CCCCCCCCCCCCCCOS(=O)(=O)O please.
Completion: active

Prompt: Okay, and CCCCCCC(CCCCCCCCCCC(=O)OCC(COC(C)=O)OC(C)=O)OC(C)=O (stereo not drawn) ?
Completion: inactive

* * *

Read-out: cysteine-aspartic acid protease (CASP8), CASP8 (gene 841)
measurement description: LTEA_HepaRG_CASP8: Life Technologies and Expression Analysis (LTEA) Assay for cysteine-aspartic acid protease (CASP8) using HepaRG (AID 2283480)
conditions: mRNA level, 48 h; actives raise or lower the signal
The source made the active and inactive calls. Rule for the calls: active = hit-call score of the fitted dose curve at least 0.9, where 1 is the maximum; inactive = score below 0.9.
Please state which outcome applies, choosing from Yes for active, No for inactive

Example entries and their recorded answers appear below.
> print(dat)
                            compound  assigned.label
1     O=C1O[C@H]([C@H](O)CO)C(O)=C1O              No
2                          CCCC(=O)O              No
3  O=C1NC(=O)C(c2ccccc2)(c2ccccc2)N1              No
4           CCCCOC(=O)CCCCC(=O)OCCCC              No
5           CCCCCCCCCC[N+](C)(C)[O-]              No
6                     O=Cc1ccccc1C=O              No

Attention now shifts to the item below.
Prompt: Identify the outcome logged in this assay for the compound shown: O=C(N[C@@H](c1ccccc1)[C@@H]1CCCCN1)c1cccc(C(F)(F)F)c1Cl
Completion: Yes

* * *

Read-out: HGF (gene 3082)
measurement description: LTEA_HepaRG_HGF: Life Technologies and Expression Analysis (LTEA) Assay for Hepatocyte Growth Facto (HGF) using HepaRG (AID 2283505)
conditions: mRNA level, 48 h; actives raise or lower the signal
Calls of active or inactive are those of the source. How the source made its calls: active means hit-call score of the fitted dose curve at least 0.9, where 1 is the maximum; inactive means score below 0.9.
Please state which outcome applies, choosing from true (active), false (inactive)

Prompt: Called result for CCCCCCCC(=O)OC
Completion: false

Prompt: Cool, now CCCCC(CC)COP(=O)(OCC(CC)CCCC)OCC(CC)CCCC (stereo not drawn)
Completion: false

* * *

measurement description: ATG_MRE_CIS: Attagene CIS-FACTORIAL HepG2 Assay for human Metal Responsive Element (MRE) (AID 2282954)
conditions: HepG2 MRE cis-reporter transcription, Attagene multiplex; actives raise or lower the signal
Calls of active or inactive are those of the source. Rule for the calls: active = hit-call score of the fitted dose curve at least 0.9, where 1 is the maximum; inactive = score below 0.9.
One label from this list, please: True (active), False (inactive)

Reference set (6 entries):
> print(dat)
                                   molecule  assigned.label
1  Cc1ccc(-c2cc(C(F)(F)F)nn2-c2ccc(S(N)(=O)=O)cc2)cc1            True
2                  CCCCCCCCCC[N+](C)(C)[O-]           False
3  CC(=O)S[C@H](C(=O)N[C@H]1Cc2ccccc2[C@H]2CCC[C@@H](C(=O)O)N2C1=O)C(C)C           False
4                                 NC1CCCCC1           False
5  O=C(N[C@@H](c1ccccc1)[C@@H]1CCCCN1)c1cccc(C(F)(F)F)c1Cl            True
6  Cc1c(C)c2c(c(C)c1O)CCC(C)(COc1ccc(CC3SC(=O)NC3=O)cc1)O2 (stereo not given)            True

Query molecule follows.
Prompt: Would you mind telling me which call this test gave Oc1ccc(O)cc1 ?
Completion: False

* * *

measurement description: CCTE_Mundy_HCI_hNP1_Casp3_7: CCTE's Caspase-Glo 3/7 Assay in human neuroprogenitor cells for Apoptosis, Mundy Lab (AID 2284240)
The source made the active and inactive calls. How the source made its calls: active means hit-call score of the fitted dose curve at least 0.9, where 1 is the maximum; inactive means score below 0.9.
Assign a class; possible classes are 1 (yes) = active, 0 (no) = inactive

Below, 3 compounds whose answers are already recorded.
> print(dat)
                                   compound  assigned.label
1          CN(C)CCCN1c2ccccc2Sc2ccc(Cl)cc21         1 (yes)
2         O=C1NC(=O)C(c2ccccc2)(c2ccccc2)N1          0 (no)
3  CC(=O)CC(c1ccccc1)c1c(O)c2ccccc2oc1=O (centres undefined)          0 (no)

Let us examine a further case.
Prompt: Please share the test call associated with OCC(O)CO .
Completion: 0 (no)
